I'd be grateful if you could share measured log10 of MIC90 for these entries.
Tested on: Mycobacterium tuberculosis variant bovis BCG
Test: microbe, parasite or virus in culture
Format: functional
The base-10 logarithm of MIC90, taken with MIC90 in µM, is what appears here.

Compound	Readout Label	Result Value
O=C(C=Cc1cccs1)N1CCN(Cc2ccc3c(c2)OCO3)CC1	log10 of MIC90	0.23
CCOc1ccc(-c2nnc(NC(=O)c3cnc(Cl)c(Cl)c3)o2)cc1	log10 of MIC90	0.98
CCc1c(C)nc(-c2cccc(F)c2)nc1N1CCNCC1	log10 of MIC90	0.88
CCc1cc(=O)[nH]c(-n2nc(C)cc2NC(=O)c2cc3ccccc3o2)n1	log10 of MIC90	0.58

Go through the items and report each one's log10 of MIC90.
1. CC(=O)N(C)c1ccc(Oc2ccnc(NCc3c(C)cccc3C)n2)cc1
2. COc1ccc(-c2nc(NC(=O)C3CCCN3S(=O)(=O)c3cccs3)sc2C)cc1 (centres undefined)
3. O=C(NC1CCSc2ccccc21)c1ccc(S(=O)(=O)N2CCOCC2)cc1 (centres undefined)
4. CCOC(=O)CC[C@H](NC(=O)c1ccc(S(=O)(=O)Nc2ccc3nc(N)[nH]c(=O)c3c2)cc1)C(=O)OCC
5. O=C(CSCc1ccc(Cl)cc1)NNC(=O)c1ccncc1

1: 0.98; 2: 0.84; 3: 0.52; 4: 0.38; 5: 0.99

Go through the items and report each one's log10 of MIC90.
1. O=C(Nc1ccccc1-c1nc(C2CCC2)cs1)OCC1CCNCC1.O=C(O)C(F)(F)F
2. CC(=O)N1CCc2ccc(/C=C/C(=O)O)cc21
3. COc1ccc(-c2nc(-c3cccc(NC(=O)Cc4ccc(F)cc4)c3)no2)cc1OC
4. CNc1nc(SC)nc2ccccc12

0.81
0.32
0.36
-0.52

Item: Clc1ccc(-c2nnc3sc(Cc4cccs4)nn23)cc1 | log10 of MIC90: 0.88

---

System: Mycobacterium tuberculosis variant bovis BCG
Assay: microbe, parasite or virus in culture
Assay type: functional
Readout Label: MIC90 (µM)
Numbers only, in µM.

Guide cases for MIC90, answers given:
Compound	MIC90, µM
O=C(Nc1cccc2cccnc12)c1cnccn1	9.4
O=C(c1cccc(-n2cnnn2)c1)N1CCCCC1c1nc2ccccc2s1 (stereo unspecified)	8
CCc1c(C)nc(-n2nc(C)cc2NC(=O)CCc2ccccc2)[nH]c1=O	3.8

Go through the items and report each one's MIC90.
1. O=C(CC1NC(=O)c2ccccc21)Nc1cccc(-c2cc(-c3c(Cl)cccc3Cl)no2)c1 (stereo unspecified)
2. c1ccc(CNc2ncc(-c3ccc(CNCC4CCCO4)cc3)cn2)cc1 (stereo unspecified)
3. Cc1cc(=O)[nH]c(-n2nc(C)cc2NC(=O)C2(c3ccc(Cl)cc3)CCCC2)n1

[5, 8.8, 1.3]

---

Tested on: Mycobacterium tuberculosis variant bovis BCG
Experiment: microbe, parasite or virus in culture
Assay type: functional
I'd be grateful if you could share measured MIC90 for these entries.
State the result as a value with its unit after it.

Go through the items and report each one's MIC90.
1. Cc1n[nH]c(C)c1S(=O)(=O)Nc1ccc2c[nH]nc2c1
2. c1cc(CN2CCC3(CC2)OCCc2sccc23)nc(-c2ccc3c(c2)OCO3)c1
3. COc1ccccc1C(=O)N(Cc1cccnc1)Cc1cc2c(C)cc(C)cc2nc1Cl
4. Cc1cc(C)n(-c2nc(C)c(Br)c(N(C)CCO)n2)n1

6.2 µM
2.3 µM
5.9 µM
4.7 µM

Go through the items and report each one's MIC90.
1. c1ccc(-c2nnc(Sc3ccnc(N4CCN(c5ccncc5)CC4)n3)n2CCN2CCOCC2)cc1
2. CCCc1ccc(S(=O)(=O)Nc2ccc(CN3CCN(CC4CC4)CC3)cc2)cc1.O=C(O)C(F)(F)F.O=C(O)C(F)(F)F

4.2 µM
8.1 µM

Go through the items and report each one's MIC90.
1. COc1ccc(NC(=O)N2CCCN(c3nc4c(C)c(C)ccc4cc3C#N)CC2)cc1
2. COc1cc(CN2CCCC(c3cc(C(F)(F)F)n4nc(C)cc4n3)C2)ccc1O (centres undefined)
3. N#Cc1nc(-c2cccs2)oc1S(=O)(=O)c1ccc(Br)cc1

1. 5.3 µM
2. 6 µM
3. 2.9 µM

---

I'd be grateful if you could share measured MIC90 for these entries.
Tested on: Mycobacterium tuberculosis variant bovis BCG
Assay: microbe, parasite or virus in culture
Type: functional
Numbers only, in µM.

Molecule	Readout Label	Unit Of Measure	Result Value
CCC1=NN(C(=O)c2ccncc2)C(O)(c2ccncc2)C1 (stereo not drawn)	MIC90	µM	6.9
CC(C)c1ccc(-c2cncc(N3CCN(c4ccncc4)CC3)n2)cc1	MIC90	µM	5.1

Item: Cn1c(Sc2ccnc(N3CCN(c4ccncc4)CC3)n2)nnc1C(N)=O | MIC90: 6.9

---

System: Mycobacterium tuberculosis variant bovis BCG
Test: microbe, parasite or virus in culture
Format: functional
Param label: returns label 1 when MIC90 < 5 µM, returns label 0 otherwise, including exact equality.

Illustrative cases are given below, each with its answer.
Compound	Category
Cc1nc2ccccc2n1CC(O)COc1ccc(NC(=O)c2ccccc2)cc1 (stereo not given)	label 1
O=C(NNC(=O)c1cccs1)c1csc(COc2ccccc2Cl)n1	label 0
COc1cc(OC)c(C(=O)Nc2cccc3c2CCN(C)C3C)cc1Br (stereo not given)	label 0
CCOc1ccc(C(=O)Nc2nc(-c3ccccn3)cs2)cc1OCC	label 0
C=CCn1c(Sc2ccnc(N3CCN(c4ccncc4)CC3)n2)nnc1C(N)=O	label 1

Say whether its MIC90 is strictly beneath 5 µM. Entry: c1cncc(NCc2ccc(-c3cc4ccncc4cc3OC3CCNCC3)s2)c1
label 0

Say whether its MIC90 is strictly beneath 5 µM. Entry: CCOc1cc(OC)c(C(=O)Nc2cccc3c2CCNC3C)cc1Cl (stereo not given)
label 1

Say whether its MIC90 is strictly beneath 5 µM. Entry: O=C(Nc1nc(-c2ccccn2)cs1)c1ccc(-c2ccc(F)cc2)s1
label 1

---

Tested on: Mycobacterium tuberculosis variant bovis BCG
Assay: microbe, parasite or virus in culture
Type: functional
Grouping rule (MIC90): class 1 (below 4 µM), class 2 (4 µM to below 8 µM), class 3 (8 µM or more)

Illustrative cases are given below, each with its answer.
Compound	Category
Cc1ccc(C)c2nc(N3CCN(C)CC3)c(C#N)cc12	class 3
Cc1cc2nc(C)n(CCCOc3ccccc3)c2cc1C	class 2
CSc1cccc(C(=O)Nc2nc(-c3ccccn3)cs2)c1	class 2
Nn1c(=O)oc2ccc(Cl)cc2c1=O	class 1
NC1CCCN(c2ncnc(-c3ccc4c(c3)CCC4)n2)C1 (configuration not stated)	class 3
COc1ccc2sc(Nc3nc(C)n(-c4ccccc4)c(=O)n3)nc2c1	class 3
Cn1ccnc1CNCCS(=O)(=O)c1cccc(Nc2ccc(-c3cccc(F)c3)cn2)c1	class 2
O=c1cc(N2CCCNCC2)c(Cl)nn1CCCNS(=O)(=O)c1ccc(-c2ccccc2)cc1	class 2

Hey, which category is COc1ccc(Cc2nn3c(-c4ccc(C)cc4)nnc3s2)cc1 in, do you know?
class 2

Hey, which category is CC1(C(=O)Nc2cccc3cccnc23)CCN1CC1CC1 (configuration not stated) in, do you know?
class 2

Hey, which category is COC(=O)c1c(NC(=O)c2c(F)c(F)c(F)c(F)c2F)sc2c1CCCCC2 in, do you know?
class 1

Hey, which category is FC(F)(F)c1cc(N2CCCNCC2)c2ccccc2n1 in, do you know?
class 2

Hey, which category is Brc1c(-c2ccc3c(c2)OCO3)nc2ncccn12 in, do you know?
class 1

Hey, which category is Cc1cc(C(=O)Nc2nc(-c3ccccn3)cs2)no1 in, do you know?
class 2

---

Tested on: Mycobacterium tuberculosis variant bovis BCG
Assay: microbe, parasite or virus in culture
Type: functional
Readout Label: MIC90 (µM)
One number for each entry, in µM.

Guide cases for MIC90, answers given:
Molecule	MIC90 [µM]
O=C(Nc1nnc(SCc2ccc(Cl)cc2)s1)c1ccccn1	4
Cc1cc(C)c(C)c(OCCCCNCc2ccco2)c1	7.8
CCCn1nnnc1NC(=O)c1ccc(Cl)c(Cl)c1	7.9
CN1CCN(c2cc(-c3ccncc3)nc(-c3ccccc3)n2)CC1	8.5

Go through the items and report each one's MIC90.
1. Cc1cc(C(=O)Nc2nc3c(C)cccc3s2)c2c(C)nn(C(C)C)c2n1
2. COc1ccc(-c2cncc(-c3cc(N4CCN(CCO)CC4)nc(-c4ccccc4)n3)c2)cc1

2.5
7.9

Go through the items and report each one's MIC90.
1. O=C(NNC(=O)c1cccs1)c1cnn(-c2ccccc2)n1
2. COc1cc(NC(=O)c2sc(-c3ccc(Cl)cc3)cc2/N=C2/CCCCN2C)ccc1OCCN1CCCC1
3. CCCCNC(=O)c1cccc(-c2ccc(OCc3ccccc3)cc2)c1

4.5
6
9.9

Go through the items and report each one's MIC90.
1. Cc1cc(Cl)cc(C(=O)c2c(C(C)C)c(=O)[nH]c(=O)n2Cc2cc(F)nc(F)c2)c1
2. C=CCc1cc(C(=O)NC2CCC(C(C)(C)C)CC2)ccc1OC (stereo not drawn)

[0.4, 8.1]

Go through the items and report each one's MIC90.
1. CS(=O)(=O)c1cccc(C(=O)Nc2nc(-c3ccccn3)cs2)c1
2. Cc1cccc(-c2nc(C(=O)Nc3ccnc4ncnn34)cs2)c1

[3.3, 5.3]
